Tested on: biotinyl-Met-oxazolone
Test: self-aminoacylation, catalytic enhancement (BMO) (fold over background); higher = more active; k-Seq, kA / k0A0; sequences stand for … in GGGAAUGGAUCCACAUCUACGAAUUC…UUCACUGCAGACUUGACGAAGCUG
Fewer inactive variants are shown than the library holds.
assay-metric: self-aminoacylation
Numbers only.

Example entries and their recorded answers appear below.
Entry AUUUACCUAGGUCAUCGCGUG [Fam2.2 aminoacylation ribozyme variant] : self-aminoacylation on biotinyl-Met-oxazolone = 9.66

Here CCGCACUUCAAGCAAUCGGCC [Fam1B.1 aminoacylation ribozyme variant] was tested on biotinyl-Met-oxazolone, and its self-aminoacylation came to 1.71

biotinyl-Met-oxazolone self-aminoacylation of CUGCUUCAAACAUUCGGUCUG [Fam1A.1 aminoacylation ribozyme variant] is 1.12

Provide each entry's self-aminoacylation from the list below.
1. CCACACUUCAAGCAAGCAGUC [Fam1B.1 aminoacylation ribozyme variant]
2. AUUCACCUAGGCCAUUGGGUG [Fam2.2 aminoacylation ribozyme variant]
3. AAGUUUGCUAAUAGUUGCACG [Fam3.1 aminoacylation ribozyme variant]
4. CGACUUCAAACAAUCGGGCUG [Fam1A.1 aminoacylation ribozyme variant]
5. CAACUUCAAACAAUCGGACUG [Fam1A.1 aminoacylation ribozyme variant]

# output
[0.645, 4.09, 1.31, 2.05, 0.952]

All values here come from the supplement of paper PMC9233669.
